The origin of these recorded values is ChEMBL document CHEMBL2331467.

# Target Entity: Alpha-glucosidase MAL62 (Saccharomyces cerevisiae, UniProt P07265)
# Sequence (P07265 whole entry): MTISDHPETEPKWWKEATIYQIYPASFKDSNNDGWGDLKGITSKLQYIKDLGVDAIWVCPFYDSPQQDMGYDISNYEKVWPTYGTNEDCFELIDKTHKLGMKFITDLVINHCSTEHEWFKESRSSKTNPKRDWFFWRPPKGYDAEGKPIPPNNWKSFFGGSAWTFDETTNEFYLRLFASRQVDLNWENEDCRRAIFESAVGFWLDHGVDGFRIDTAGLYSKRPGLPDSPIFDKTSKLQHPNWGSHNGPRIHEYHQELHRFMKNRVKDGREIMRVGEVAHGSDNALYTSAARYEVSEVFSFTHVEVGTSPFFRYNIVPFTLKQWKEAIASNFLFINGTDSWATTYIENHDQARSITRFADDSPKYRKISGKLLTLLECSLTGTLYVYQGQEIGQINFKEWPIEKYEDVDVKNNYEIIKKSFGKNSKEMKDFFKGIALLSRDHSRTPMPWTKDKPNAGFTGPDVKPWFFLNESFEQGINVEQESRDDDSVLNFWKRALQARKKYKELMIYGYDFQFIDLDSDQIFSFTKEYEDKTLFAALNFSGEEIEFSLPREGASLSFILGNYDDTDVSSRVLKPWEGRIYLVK
# Procedure Text: Inhibition of yeast alpha-glucosidase using para-nitrophenyl alpha-D-glucopyranoside as substrate by spectrophotometric analysis
Property Label: IC50 (µM)
Give just the number in µM; leave the unit off.

Examples with their reported IC50 follow.
Compound: C[C@@H]1CC[C@H]2C(C)(C)[C@H]3C[C@@]12CC[C@@]3(C)O [CEDROL]
Observed Result: 130
//
Compound: CC(=O)O[C@]1(C)CC[C@@]23C[C@H]1C(C)(C)[C@@H]2CC[C@H]3C [CEDRYL ACETATE]
Observed Result: 94

// below: IC50 requested for another compound
Looking up CC(=O)O[C@]1(C)C[C@H](O)[C@@]23C[C@H]1C(C)(C)[C@@H]2CC[C@]3(C)O , I found its IC50 recorded as 690
